system: UACC-62 melanoma; experiment: NCI tumour cell line growth inhibition, 48 h
MEASURED_PARAMETER: TGI

Q: Quick check: TGI of CC1(C)C2CC(O)C1(C)CC2=O (stereo unspecified) ?
Ans: > 100 µM

Q: Entry C=CCCCCCCCCC(=O)NS(=O)(=O)c1ccccc1 please
Ans: > 100 µM

Q: Thanks! And CC(C)(C)OC(=O)Cc1ccc2c(ccn2Cc2ccccc2)c1 ?
Ans: > 100 µM

Q: Note, next up: COc1cccc(Nc2nc(C)c([N+](=O)[O-])c(Nc3cccc(OC)c3)n2)c1
Ans: 38.8 µM

Q: Let us now turn to COC(=O)c1ccccc1/C=C1\Cc2c(C)c3c(c(C)c2C1=O)CCC3
Ans: > 100 µM

Q: Request: CC(=O)Nc1ccc(-c2nc3ccccc3s2)cc1Br
Ans: > 100 µM

###

system: OVCAR-5 ovarian; test: NCI tumour cell line growth inhibition, 48 h
For each of the compounds below, state its TGI.

Q: What value of TGI has been reported for the following compound? CC(=O)OC1Oc2ccccc2-c2oc(=O)c(-c3cc4ccc(N(C)C)cc4oc3=O)cc21 (centres undefined)
Ans: 30.8 µM

Q: What about this compound? N=c1c2ccccc2nc2oc3cc([N+](=O)[O-])ccc3n12
Ans: > 100 µM

Q: Please do the same for O=C1c2ccccc2C(=O)C2NC(CCCCCSSCCCCCC3=NC4C(=O)c5ccccc5C(=O)C4N3)=NC12 (centres undefined) as well.
Ans: > 100 µM

Q: Try this compound too: Cc1c2c(cc3c1C(=O)C(=O)C([C@@H](C)CO)=C3O)C(C)(C)CCC2
Ans: > 100 µM

###

Exercise: for every item that follows, state its recorded TGI.
system: LOX IMVI melanoma; assay: NCI tumour cell line growth inhibition, 48 h

Q: # value lookup — system LOX IMVI melanoma, readout TGI, item CC(=O)C(C(=O)c1ccc(C)cc1)[C@@H]1OC(C)(C)O[C@@H]1[C@H]1COC(C)(C)O1 (stereo not given in full)
Ans: 21.8 µM

Q: What about this compound? COC(=O)c1ccccc1/C=C1\Cc2c(C)c3c(c(C)c2C1=O)CCC3
Ans: > 100 µM

Q: Queued: Cc1noc(C)c1CCCOC1COc2ccccc2OCCOCCOc2ccccc2OC1
Ans: > 100 µM

Q: Check CC12CCCC(C(=O)O)(C1)[C@H](C(C)(C)C(=O)O)CC2 (stereo not given in full) too.
Ans: > 100 µM

Q: // repeat for O=C1c2ccccc2-c2nnc(-c3ccc([N+](=O)[O-])cc3)cc21 and report
Ans: > 10 µM

Q: // query: COc1ccc(C(C)c2cc3c(cc2OC)OCO3)cc1 (stereo not given)
Ans: 27.3 µM

Q: # repeat for CCOC(=O)NC(=O)c1cn(CCOCCOC(=O)NCCCCCCNC(=O)OCCOCCn2cc(C(=O)NC(=O)OCC)c(=O)[nH]c2=O)c(=O)[nH]c1=O
Ans: > 100 µM

Q: Also check NC(=O)NC1NC(=O)NC1=O (stereo not given)
Ans: > 100 µM

Q: What do we get for CCS(=O)(=O)c1ccc(OC)c(Nc2ncc(-c3cccc(C(C)=O)c3)o2)c1 ?
Ans: > 25 µM

Q: Try this compound too: COC(=O)/C(C)=N/NC(=S)SC
Ans: > 100 µM

###

Hi there, I'd appreciate the recorded TGI for every entry that follows.
tested on: IGROV1 ovarian; experiment: NCI tumour cell line growth inhibition, 48 h
Write down the numeric answer in µM and omit the unit.

Q: May I ask what TGI has been recorded for COc1ccc2c(c1)C=C([N+](=O)[O-])C(C1OC(C)(C)OC1C1COC(C)(C)O1)O2 (stereo not given) ?
Ans: 31.7

Q: Can you handle O=c1[nH]c2cccc([N+](=O)[O-])c2c(=O)n1-c1ccc(Cl)cc1 next?
Ans: 40.1

Q: Same question for C1=C(CC2=C[P+](c3ccccc3)(c3ccccc3)C=C(c3ccccc3)O2)OC(c2ccccc2)=C[P+]1(c1ccccc1)c1ccccc1 please.
Ans: 0.43

Q: Next record, please: COc1cc(C2=NN(C(C)=O)C(c3ccc(OC(C)=O)cc3OC(C)=O)O2)c(OC(C)=O)c2ccccc12 (stereo not given)
Ans: 42.6

Q: Same again, this time with O=C(c1cccc(O)c1O)c1cn(Cc2ccc(F)cc2)c2cccc(O)c12
Ans: 7.85

###

test system: MCF7 breast; assay: NCI tumour cell line growth inhibition, 48 h
MEASURED_PARAMETER: TGI

Q: Given the compound Cc1cn(C2OC(CO[Si](C)(C)C(C)(C)C)/C(=C\C#N)C2O[Si](C)(C)C(C)(C)C)c(=O)[nH]c1=O (stereo not drawn) , what is its reported TGI?
Ans: > 100 µM

Q: Please answer likewise for COc1cc[nH]c1/C=C1\C(=O)Nc2ccccc21
Ans: > 25 µM

Q: Now consider Clc1nc(Cl)c2ncn(Cc3cccc(COc4cccc(OCc5cccc(Cn6cnc7c(Cl)nc(Cl)nc76)c5)c4)c3)c2n1 and answer again.
Ans: > 100 µM

Q: Would you kindly repeat that for O=c1[nH]c(=O)n(C/C=C/CO)nc1Br ?
Ans: > 100 µM

Q: Another compound to check: Cc1[nH]c(=O)[nH]c(=O)c1/C=C/C(=O)NC(CO)CC(C)C (stereo not drawn)
Ans: > 375 µM

Q: // query: O=C(O)CC1OCC=C2CN3CCC45c6ccccc6NC4C1C2CC35 (stereo not drawn)
Ans: > 100 µM

Q: Consider next the compound O=C(CP(=O)(c1ccccc1)c1ccccc1)c1cccc(C(=O)CP(=O)(c2ccccc2)c2ccccc2)c1 in the same way.
Ans: > 100 µM

Q: Consider next the compound COc1nn(Cc2ccccn2)c2ccc([N+](=O)[O-])cc12 in the same way.
Ans: > 100 µM

Q: Moving on to CCCCN=C(N)c1ccc(OCCSCCOc2ccc(C(N)=NCCCC)cc2)cc1
Ans: > 100 µM

Q: Now give it for COC(=O)/C(C)=N/NC(=S)SC too.
Ans: > 100 µM

Q: What about CC(C)c1ccc(C(=O)Nc2sc3c(c2C(N)=O)CCC(=O)C3)cc1 ?
Ans: 5.16 µM

Q: What about this compound? NC(N)=NCCCn1c2c(c3ccccc3c1=O)C(=O)c1ccccc1-2
Ans: 25.1 µM

Q: // next record CCCCCCCC(CC(=O)NC(CO)C(=O)NC(CO)CC(C)C)OC(=O)CC(CCCCCCC)OC(=O)CC(CCCCCCC)OC1OC(C)C(O)C(OC2OC(C)C(O)C(OC(C)=O)C2O)C1O (stereo not drawn)
Ans: 24.7 µM

Q: Can you handle C=C(C)C1CC=C(C)C(=O)C1 (stereo not drawn) next?
Ans: > 100 µM

Q: Now try NCCCC[C@@H]1NC(=O)[C@H]2CCCN2C(=O)[C@H](Cc2ccccc2)NC(=O)[C@H](Cc2ccccc2)CNC1=O .
Ans: > 100 µM

Q: Another compound: CN/N=C(/CCN1CCCC1)CC(c1ccccc1)c1c(O)c2ccccc2oc1=O (stereo not drawn)
Ans: > 100 µM

Q: Same thing, different compound: CC(=O)OC1CC(O)C23COC(O)C1(C)C2CC(O)C1(C)C3C(=O)C(O)C2(C)C(c3ccoc3)CC3OC321 (stereo not drawn)
Ans: > 100 µM

Q: // query: O=C(Nc1ccc(Cl)cc1)c1cc(-c2ccc(F)cc2)c2sc(=O)[nH]c2n1
Ans: 11.3 µM

###

system: MALME-3M melanoma; test: NCI tumour cell line growth inhibition, 48 h
MEASURED_PARAMETER: TGI

Q: Tell me reported TGI for O=[N+]([O-])/C(C(Cl)=C(Cl)Cl)=C1\Nc2ccc([N+](=O)[O-])cc2N1 , tested with MALME-3M melanoma.
Ans: > 100 µM

Q: Also check Cc1cc(C)nc(NS(=O)(=O)c2ccc(Nc3c4ccccc4nc4c(C(=O)Nc5ccc(S(=O)(=O)Nc6cc(C)on6)cc5)cccc34)cc2)n1
Ans: 49 µM

Q: Further, for Cc1cccc(N/C(=C(/C(Cl)=C(Cl)Cl)[N+](=O)[O-])n2nnc3ccccc32)c1 ?
Ans: 28.1 µM

Q: Try the compound CC(=O)OC1=NN=C2COC(c3ccccc3OC(C)=O)=NN2C1
Ans: > 50 µM

Q: Similarly, COc1ccc(CC2Cc3ccccc3CCN2)cc1OC (stereo unspecified) ?
Ans: > 50 µM

Q: What would you report for CCOC(=O)CN=c1nc(SC)sc2c(C(=O)OCC)nc(Sc3ccccc3)n12 ?
Ans: > 100 µM

Q: Now the same for C/C(Cl)=N/OC(=O)Nc1ccc(F)c([N+](=O)[O-])c1
Ans: 8.88 µM

Q: Same again, this time with C=CCCCCCCCCC(=O)NS(=O)(=O)c1ccccc1
Ans: > 100 µM

Q: And for C[N+]12CCCCC1C(COc1cccc3cccnc13)CCC2 (stereo unspecified) ?
Ans: > 100 µM

Q: Another compound: O=S(=O)(/N=S(/Nc1ccccc1)C(Cl)Cl)c1ccccc1 (stereo unspecified)
Ans: > 100 µM

Q: Would you mind doing CC(C)N(C(=O)C12CC3CC(CC(C3)C1)C2)C(C)C as well?
Ans: > 50 µM

Q: Next entry: CCN(CC)c1ccc(C(=N)c2ccc(N(CC)CC)cc2)cc1
Ans: 2.48 µM

Q: Okay, and COc1ccc(-c2cn3ccsc3n2)cc1 ?
Ans: > 100 µM

Q: Further, for CC(=O)[CH-]C(=O)c1ccccc1.CC(=O)[CH-]C(=O)c1ccccc1.O=C([O-])c1ccc([O-])cc1.O=C([O-])c1ccc([O-])cc1.[Ti+4] ?
Ans: 66.8 µM

Q: Entry COc1cc(C2C3=C(COC3=O)OC(C)(C)Oc3cc4c(cc32)OCO4)cc(OC)c1O (stereo unspecified) please
Ans: > 100 µM

Q: Field entry: Cc1cn2c(/C=C3/C(=O)N(C)c4ccccc43)c(C)nc2s1
Ans: > 100 µM

Q: Lookup CCOC(=O)CC[C@H](N)C(=O)N[C@@H](Cc1ccc(N(CCCl)CCCl)cc1)C(=O)OCC
Ans: 0.823 µM

Q: Try this compound too: CCCN(CCc1ccc(-c2ccccc2)cc1)CCc1ccc2n[nH]nc2c1
Ans: 22.8 µM

Q: Moving on to Cc1cc(S(=O)(=O)Nc2nc(N)nc(N3N=CCC3C)n2)c(SCC(=O)O)cc1Cl (stereo unspecified)
Ans: > 10 µM

Q: Now the same for COc1ccc(C(=O)c2cc(C)c(OC)c(C)c2)c(OC)c1N(C(=O)C(Cl)Cl)C(=O)C(Cl)Cl
Ans: > 100 µM

Q: Entry COC(=O)c1cccc2cccc(C(=O)Nc3ccc(C)cc3C)c12 please
Ans: > 100 µM
